Ref: paper PMC7265341

target: CDK18/Cyclin Y (Homo sapiens); experiment: NanoBRET live-cell target engagement, CDK18-NanoLuc/Cyclin Y in HEK-293; assay type: binding; settings: IC50 (nM) Replicate 2, CDK18/Y
Sequence (Q07002 whole entry): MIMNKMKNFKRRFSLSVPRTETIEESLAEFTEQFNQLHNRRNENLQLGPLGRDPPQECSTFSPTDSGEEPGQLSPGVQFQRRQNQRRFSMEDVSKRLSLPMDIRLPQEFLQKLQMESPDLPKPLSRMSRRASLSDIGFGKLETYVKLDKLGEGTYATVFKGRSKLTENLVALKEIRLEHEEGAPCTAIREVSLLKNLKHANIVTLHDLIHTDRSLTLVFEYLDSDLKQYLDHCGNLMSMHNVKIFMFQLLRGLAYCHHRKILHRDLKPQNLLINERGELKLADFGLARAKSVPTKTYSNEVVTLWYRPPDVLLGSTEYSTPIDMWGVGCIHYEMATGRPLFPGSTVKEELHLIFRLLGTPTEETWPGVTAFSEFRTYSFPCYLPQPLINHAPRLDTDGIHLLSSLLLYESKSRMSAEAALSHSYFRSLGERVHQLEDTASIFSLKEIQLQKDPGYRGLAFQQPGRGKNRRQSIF
Sequence (Q8ND76 whole entry partner): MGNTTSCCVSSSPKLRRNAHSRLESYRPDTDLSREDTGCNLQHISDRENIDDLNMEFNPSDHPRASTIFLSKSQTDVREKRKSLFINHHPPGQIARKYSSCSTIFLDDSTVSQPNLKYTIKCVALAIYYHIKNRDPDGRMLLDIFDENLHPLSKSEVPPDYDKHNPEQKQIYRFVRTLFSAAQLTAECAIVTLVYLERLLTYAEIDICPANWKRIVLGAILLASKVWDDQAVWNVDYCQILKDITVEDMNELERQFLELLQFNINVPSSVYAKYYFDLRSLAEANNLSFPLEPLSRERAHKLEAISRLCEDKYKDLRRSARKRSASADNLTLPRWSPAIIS
value-kind: IC50 (nM)

smiles_data=CCN1CCN(Cc2ccc(Nc3ncc(F)c(-c4cc(F)c5nc(C)n(C(C)C)c5c4)n3)nc2)CC1 value_kind=IC50 recorded_measurement=350

* * *

biological target: CDK7 (Homo sapiens, UniProt P50613); assay: NanoBRET live-cell target engagement, NanoLuc-CDK7 in HEK-293; type: binding; settings: 10µM; independent experiment 2
Sequence (P50613 whole entry): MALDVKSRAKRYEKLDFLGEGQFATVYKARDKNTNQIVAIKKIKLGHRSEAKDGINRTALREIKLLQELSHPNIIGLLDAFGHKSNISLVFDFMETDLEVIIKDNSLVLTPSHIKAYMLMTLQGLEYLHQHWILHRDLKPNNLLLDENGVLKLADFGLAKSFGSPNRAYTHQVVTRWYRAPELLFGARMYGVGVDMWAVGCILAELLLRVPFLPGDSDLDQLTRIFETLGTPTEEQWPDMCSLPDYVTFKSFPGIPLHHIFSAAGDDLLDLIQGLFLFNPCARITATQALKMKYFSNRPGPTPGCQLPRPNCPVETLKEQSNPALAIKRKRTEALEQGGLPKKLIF
value-kind: CDK7 Inhibition at 10µM (%)

molecule=O=C1NCCc2[nH]c(-c3ccncc3)cc21 measurement_unit=% recorded_measurement=26.4
molecule="Cc1c(Br)c(Br)c2c3c1nc(N1CCNCC1)n3CCC2.Cl [SEL 120-34A]" measurement_unit=% recorded_measurement=39.7
molecule=CN(C)C/C=C/C(=O)Nc1ccc(C(=O)Nc2cccc(Nc3ncc(Cl)c(-c4c[nH]c5ccccc45)n3)c2)cc1 measurement_unit=% recorded_measurement=97.1
molecule=O=C1NC(=NCc2cccs2)S/C1=C\c1ccc2ncccc2c1 measurement_unit=% recorded_measurement=78.3
